Reported logD is given for each of the following compounds.
assay: Lipophilicity, log D of the compound at pH 7.4; settings: buffer
Reply briefly: the number, and no unit.

Before answering, review these 4 worked examples.
[
  {
    "compound": "CC(=O)Nc1ccc2c(c1)c(Sc1ccc(Cl)cc1)c(C)n2CC(=O)O",
    "reading": 0.2
  },
  {
    "compound": "CCS(=O)(=O)c1ccc(Oc2c(C)n(CC(=O)O)c3ccc(C(F)(F)F)cc23)cc1",
    "reading": 0.3
  },
  {
    "compound": "CCN(C(C)=O)c1cccc2c1c(Sc1ccc(Cl)cc1)c(C)n2CC(=O)O",
    "reading": 1.6
  },
  {
    "compound": "Cc1c(Sc2ccc(Cl)cc2)c2ccc(Cl)cc2n1CC(=O)O",
    "reading": 2.5
  }
]

Next item in the queue.
Input: Which logD is reported for this compound? `Cc1c(Sc2ccc(Cl)cc2)c2c(Cl)cccc2n1CC(=O)O`
Output: 2.2
